System: SGC-7901 (human gastric cancer cells)
PROTOCOL DESCRIPTION: MTT cancer cell growth inhibition
Assay type: cell-based
TEST CONTEXT: Homo sapiens, SGC-7901, 72 h, MTT, 72 hours incubation, SGC-7901 cells; read-out: GI50 SGC-7901
Define the label as criterion met when GI50 is strictly less than 50 nM and as criterion not met in all remaining cases.

CSc1ccc2nc1C(=O)NC(=C(C)C)C(=O)N[C@@H](C(C)C)C(=O)O[C@H](/C=C/CCSC(C)=O)CC(=O)NC2 [Compound 207]	criterion not met
C/C=C1\NC(=O)c2nc(ccc2SC)CNC(=O)C[C@@H](/C=C/CCSC(C)=O)OC(=O)[C@H](C)NC1=O [Compound 183]	criterion met
C=C1NC(=O)c2nc(ccc2SC)CNC(=O)C[C@@H](/C=C/CCSC(C)=O)OC(=O)[C@H](C(C)C)NC1=O [Compound 204]	criterion not met
C/C=C1\NC(=O)c2nc(ccc2F)CNC(=O)C[C@@H](/C=C/CCSC(=O)CCCCCCC)OC(=O)[C@H](Cc2ccccc2)NC1=O [Example 69]	criterion met

Now look at this entry.
Task: Does the reported GI50 of the following compound sit strictly below 50 nM? C/C=C1\NC(=O)c2nc(ccc2SC)CNC(=O)C[C@@H](/C=C/CCSC(C)=O)OC(=O)[C@H](CCCCNC(=O)OCC2c3ccccc3-c3ccccc32)NC1=O [Compound 195]
Output: criterion met

* * *

Values of IC50 reported for HDAC2 (Homo sapiens, UniProt Q92769) appear below.
Just the number in µM, nothing appended.

These recorded examples may help you get a feel for the data.
C/C=C1\NC(=O)c2nc(ccc2F)CNC(=O)C[C@@H](/C=C/CCSC(C)=O)OC(=O)[C@H](C(C)C)NC1=O [Example 48]	0.015
C/C=C1\NC(=O)c2cccc(n2)CNC(=O)C[C@@H](/C=C/CCSC(=O)CCCCCCC)OC(=O)[C@H](CSCC)NC1=O [Compound 242]	0.043
C/C=C1\NC(=O)c2nc(ccc2F)CNC(=O)C[C@@H](/C=C/CCSC(=O)CCCCCCC)OC(=O)[C@H](CC)NC1=O [Example 54]	0.024
C/C=C1\NC(=O)c2cccc(n2)CNC(=O)C[C@@H](/C=C/CCSC(=O)CCCCCCC)OC(=O)[C@H](Cc2ccccc2)NC1=O [Compound 14]	0.059
C/C=C1\NC(=O)c2cccc(n2)CNC(=O)C[C@@H](/C=C/CCSC(=O)CCCCCCC)OC(=O)CNC1=O [Compound 235]	0.019
CCCCCCCC(=O)SCC/C=C/[C@@H]1CC(=O)NCc2cccc(n2)C(=O)NC(CC)C(=O)N[C@@H](C(C)C)C(=O)O1 (stereo partly shown) [Compound 245]	0.074
C/C=C1\NC(=O)c2nc(ccc2F)CNC(=O)C[C@@H](/C=C/CCSC(C)=O)OC(=O)[C@H](Cc2ccc(O)cc2)NC1=O [Compound 81]	0.031
C/C=C1\NC(=O)c2nc(ccc2SC)CNC(=O)C[C@@H](/C=C/CCS)OC(=O)[C@H](C)NC1=O [Compound 232]	0.093
C/C=C1\NC(=O)c2nc(ccc2F)CNC(=O)C[C@@H](/C=C/CCSC(=O)CCCCCCC)OC(=O)[C@H](C)NC1=O [Example 60]	0.037

# evaluate next
Task: State its IC50: C/C=C1\NC(=O)c2cccc(n2)NC(=O)C[C@@H](/C=C/CCSC(C)=O)OC(=O)[C@H](C(C)C)NC1=O [Example 22]
Output: 0.054

Every entry's value here was drawn from patent US10065990B2.
